Target Desc: T1, full-length human PD1 on cells (CHO-K1 stably transfected with plasmid 15311_hPD1-fl_pUC_Neo) (human, UniProt Q15116 25-288)
T1 construct: Also used as the target of the MLR and reporter read-outs; also called CHO-PD1; PD1 on primary human T cells in the MLR
Protocol Description: cell ELISA on CHO-K1 cells with full-length human PD1
Answer each item with its documented EC50.
Give bare numbers, in ng/mL.

| Binder | Data Value |
| --- | --- |
| PD1-0103-0313 (antibody, human IgG1, V domains shown, Humanized) VH: EVQLLESGGGLVQPGGSLRLSCAASGFSFSSYTMSWVRQAPGKGLEWVATISGGGRDIYYPDSVKGRFTISRDNSKNTLYLQMNSLRAEDTAVYYCVLLTGRVYFALDSWGQGTLVTVSS VL: DVVMTQSPLSLPVTLGQPASISCRASESVDTSDNSFIHWYQQRPGQSPRLLIYRSSTLESGVPDRFSGSGSGTDFTLKISRVEAEDVGVYYCQQNYDVPWTFGQGTKVEIK | 10.8 |

Give measured EC50 for every item shown.
1. PD1-0103-0314 (antibody, human IgG1, V domains shown, Humanized) VH: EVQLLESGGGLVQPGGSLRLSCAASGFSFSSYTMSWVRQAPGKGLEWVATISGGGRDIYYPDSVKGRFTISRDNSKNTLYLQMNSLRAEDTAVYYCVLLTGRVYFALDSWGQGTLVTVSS VL: EIVLTQSPATLSLSPGERATLSCRASESVDTSDNSFIHWYQQKPGQSPRLLIYRSSTLESGIPARFSGSGSGTDFTLTISSLEPEDFAVYYCQQNYDVPWTFGQGTKVEIK
2. PD1-0103-0315 (antibody, human IgG1, V domains shown, Humanized) VH: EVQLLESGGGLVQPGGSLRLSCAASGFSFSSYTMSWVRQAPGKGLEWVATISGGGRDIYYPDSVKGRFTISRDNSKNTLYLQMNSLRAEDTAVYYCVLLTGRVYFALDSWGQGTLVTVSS VL: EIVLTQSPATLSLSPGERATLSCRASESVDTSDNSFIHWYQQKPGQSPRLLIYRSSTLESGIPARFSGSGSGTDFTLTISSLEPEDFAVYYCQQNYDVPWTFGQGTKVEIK
3. PD1-0103-0312 (antibody, human IgG1, V domains shown, Humanized) VH: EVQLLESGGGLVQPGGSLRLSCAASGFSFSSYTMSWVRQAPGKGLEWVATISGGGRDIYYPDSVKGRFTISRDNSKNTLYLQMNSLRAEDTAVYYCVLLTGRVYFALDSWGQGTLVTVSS VL: DIVMTQSPDSLAVSLGERATINCKASESVDTSDNSFIHWYQQKPGQSPKLLIYRSSTLESGVPDRFSGSGSGTDFTLTISSLQAEDVAVYYCQQNYDVPWTFGQGTKVEIK

Ans:
7.7
7.3
10.1
